Cited source for all entries: ChEMBL document CHEMBL1201862

# reported GI50; entries follow
Test system: RPMI-8226
Assay Method Text: NCI tumour cell line growth inhibition, 48 h
The source made the active and inactive calls. No stated cut-off is given here; in the data, active = GI50 up to about 1.1 µM and inactive = higher.

The cases that follow already have their GI50 on record.
Smiles	Experimental Value
COc1ccc(/C=C2\CCCCCC2=O)cc1	> 100 µM (inactive)
COc1ccc(C=O)c(N(C)C(=O)C(C)(C)C)c1	> 100 µM (inactive)
CCCc1cn2c(/C=N/NC(=N)N)c(-c3cc([N+](=O)[O-])c(Cl)cc3Cl)nc2s1	1.32 µM (inactive)
COc1ccc(/C=C2\C[C@H]3[C@@H]4CC=C5C[C@@H](O)CC[C@]5(C)[C@H]4CC[C@]3(C)\C2=N\O)cc1	2.26 µM (inactive)

Consider now this further compound.
Lookup result for CCC1(CC)C(=O)N(C(=O)c2cc(OC)c(OC)c(OC)c2)N(C(=O)c2cc(OC)c(OC)c(OC)c2)C1=O ; measured GI50: > 50 µM (inactive)

* * *

Test system: COLO 205
Assay Method Text: NCI tumour cell line growth inhibition, 48 h
The source made the active and inactive calls. Cut-off read from the data, not from the text of the source: active = GI50 up to about 1.1 µM and inactive = higher.
Return exactly one item of active, inactive

Previously resolved entries follow.
Compound	System Tested	Discrete Label
N=C(N)C1CN(CCc2c[nH]cn2)C(=O)NC1=O (stereo unspecified)	COLO 205	inactive
Cc1nc2c(cc1OCc1ccccc1)C(=O)C1=C(C2=O)C2OC(=O)CC2OC1(C)C (stereo unspecified)	COLO 205	active
CC1OC(n2cc(Cl)c(=O)[nH]c2=O)C=C(OC(=O)c2ccccc2)C1=O (stereo unspecified)	COLO 205	inactive
N#CC1=C(S)N(C2OC(CO)C(O)C(O)C2O)C(c2ccccc2)=CC1c1cccs1 (stereo unspecified)	COLO 205	inactive
COC12OCCN(C)C1=CC(=O)C1(C)N=NCC12 (stereo unspecified)	COLO 205	inactive
O=[N+]([O-])c1ccc2nc3ccc([N+](=O)[O-])cn3c2c1	COLO 205	inactive
COC(=O)c1cc(Br)c(Br)n1C	COLO 205	inactive
COc1cc(NC(C)c2ccc3c(c2)OCCO3)cc(OC)c1OC (stereo unspecified)	COLO 205	inactive
COC(=O)c1ccc(NC(=O)O/N=C(\Cl)C(C)C)cc1	COLO 205	inactive
CCOn1c(C2(CC3CCN(C(=O)c4ccccc4)CC3)OCCO2)cc2ccccc21	COLO 205	inactive

Q: Could you check what this test reported for COC(=O)C12Oc3ccc(-c4ccc5c(c4O)C(=O)C4=CCC(C)C(O)C4(C(=O)OC)O5)c(O)c3C(=O)C1=CCC(C)C2O (stereo unspecified) ?
Ans: inactive

Q: Recorded call for O=C(NNC(=S)Nc1ccc(Cl)cc1)C12CC3CC(CC(C3)C1)C2 ?
Ans: inactive

Q: // return assay outcome for Cc1ccc(O)c(C2=CC(c3cccc(Br)c3)SC(=N)N2)c1 (stereo unspecified)
Ans: inactive

Q: Fill in: this test's call for COC(=O)c1ccccc1/C=C1\Cc2cc(C)c(C)cc2C1=O is ___
Ans: inactive

Q: Please let me know the test result on file for Cc1cc(Cl)ccc1NC(=O)CCCC(=O)C1C/C(=N/O)CC/C1=N\O (stereo unspecified) .
Ans: inactive

* * *

Test system: MDA-MB-435
Assay Method Text: NCI tumour cell line growth inhibition, 48 h
The source made the active and inactive calls. Cut-off read from the data, not from the text of the source: active = GI50 up to about 1.1 µM and inactive = higher.
Please answer using one outcome listed in t = active, f = inactive

Molecule	System Tested	Discrete Label
CC(=O)NCC1(c2ccccc2)CCN(CC2COc3ccccc3O2)CC1 (configuration not stated) [ACOXATRINE]	MDA-MB-435	f
CCC(C)C(C(=O)N/N=C1/SCC(=O)N1c1ccccc1)C(=O)N/N=C1/SCC(=O)N1c1ccccc1 (configuration not stated)	MDA-MB-435	f
O=C(NC(c1ccccc1)C(O)C(=O)OCc1ccc2c(c1)C(=O)c1ccccc1C2=O)c1ccccc1 (configuration not stated)	MDA-MB-435	f
Cc1cccc(Nc2nc(NNC(=O)Cc3ccccc3)nc(NNC(=O)c3ccncc3)n2)c1	MDA-MB-435	f
CCCc1cn2c(/C=N/NC(=N)N)c(-c3cc([N+](=O)[O-])c(Cl)cc3Cl)nc2s1	MDA-MB-435	f

Q: Could you please tell me the result logged for O=C(/C=C/c1ccc(O)cc1)c1cc(O)cc(O)c1 in this assay?
Ans: f

Q: Name the outcome recorded for Nc1ncnc2c1nc(Cl)n2C1OC(CO)C(O)C1O (configuration not stated) in the assay.
Ans: f

Q: Would you mind telling me which call this test gave CCOP(=O)(OCC)/C(C#N)=C/c1c[nH]c2ccccc12 ?
Ans: f

Q: Just curious, what result did Cc1ccccc1NC(=O)O/N=C(\Cl)C(C)C get here?
Ans: f

Q: Per the assay record, what outcome was assigned to O=C(NO)c1ccc(OCc2ccccc2)cc1 ?
Ans: f

Q: Name the outcome recorded for CN(Cc1cnc2nc(N)nc(N)c2n1)c1ccc(C(=O)NCCCC(=O)O)cc1 in the assay.
Ans: f

Q: Give the logged outcome of this assay for the following molecule: O=c1cc(-c2ccccc2)[nH]c2cc(F)c(F)cc12
Ans: t

Q: Assay result, entry CC(C)N(C(C)C)S(=O)(=O)C[C@]12CC[C@H](CC13OCC(CS(=O)(=O)c1ccccc1)O3)C2(C)C (some centres not stated) — outcome?
Ans: f

Q: What classification did Nc1c(S(=O)(=O)O)cc(Nc2cccc(S(N)(=O)=O)c2)c2c1C(=O)c1ccccc1C2=O end up with in this test?
Ans: f

Q: Kindly provide the recorded test outcome for the following molecule: CCCCCC(CO)C(O)(C(F)(F)F)C(F)(F)F (configuration not stated)
Ans: f

Q: Any idea what this test logged for OC1c2ccccc2CC12Cc1ccccc1C2 (configuration not stated) ?
Ans: f

Q: How did this test come out for O=C1OC(c2ccccc2)=N/C1=C\c1ccc(Cl)cc1 ?
Ans: f

* * *

System: SNB-19
Assay Method Text: NCI tumour cell line growth inhibition, 48 h
Calls of active or inactive are those of the source. Rule as the data show it: active = GI50 up to about 1.1 µM and inactive = higher.
A collection of molecules and their measured GI50

Molecule	GI50
CC12CC3c4ccccc4CN1C3(c1ccccc1)OC2=O (stereo not given)	> 100 µM (inactive)
O=C(O)Cc1c(-c2ccc([N+](=O)[O-])cc2)c(=O)oc2cc(O)ccc12	25.1 µM (inactive)
COC(=O)/C=C(/C=C1/C(C#N)=C(N)N(c2ccc(Cl)cc2)C1(C)/C(=C/C(=O)OC)C(=O)OC)C(=O)OC (stereo not given)	> 100 µM (inactive)
COC(=O)c1ccccc1/C=C1\Cc2cc(C)c(C)cc2C1=O	33.4 µM (inactive)

Then there is this molecule:
# GI50 of Cn1c(=O)c2c(nc3n2CCC(=O)N3CCCCl)n(C)c1=O = > 100 µM (inactive)

* * *

Test system: SW-620
Assay Method Text: NCI tumour cell line growth inhibition, 48 h
Active and inactive are the calls of the source. No stated cut-off is given here; in the data, active = GI50 up to about 1.1 µM and inactive = higher.
Tick one outcome: active, inactive

Some solved cases for reference:
Compound	Discrete Label
Cc1ccc(-c2nnc(-c3nn(-c4ccccc4)c4nc5ccccc5nc34)o2)cc1	inactive
CCOC(=O)c1c(N2CCOCC2)[nH]c(=O)c(C(c2c(O)c(C(=O)OCC)c(N3CCOCC3)[nH]c2=O)C(C)C)c1O	inactive
O=c1[nH][nH]c(=O)n1Cc1ccccc1	inactive
O=C(NCCCCl)c1c(O)c2ccccc2[nH]c1=O	inactive

Q: Per the records of this test, what outcome belongs to O=C1Oc2ccc([N+](=O)[O-])cc2N/C1=C\C(=O)c1ccccc1 ?
Ans: inactive

Q: I'd appreciate the recorded outcome for CCCCOC(=O)C(NC(C(=O)OCCCC)c1cc(C(C)(C)C)c(O)c(C(C)(C)C)c1)c1cc(C(C)(C)C)c(O)c(C(C)(C)C)c1 (stereo not given) from this test.
Ans: inactive

Q: Test call for this compound, please: O=C1N(c2ccccc2)C(=O)C2(SC=NN2Cc2ccccc2)N1c1ccccc1 (stereo not given)
Ans: inactive

Q: Please state the recorded outcome for this compound: O=C(CN1CCOCC1)c1ccc2c(c1)oc(=O)n2CCN1CCCC1
Ans: inactive

* * *

Test system: MOLT-4
Assay Method Text: NCI tumour cell line growth inhibition, 48 h
The source made the active and inactive calls. Cut-off read from the data, not from the text of the source: active = GI50 up to about 1.1 µM and inactive = higher.
The categories you may choose from are 1.0 for active, 0.0 for inactive

// below: answered molecules
Molecule	Discrete Label
COc1ccc(P2(=S)OCCOP(=S)(c3ccc(OC)cc3)S2)cc1 (centres undefined)	0.0
COc1cccc2c1C(=O)c1c(O)c3c(c(O)c1C2=O)C[C@@](O)(/C(C)=N/NC(=O)c1ccc(Cl)c(Cl)c1)C[C@@H]3OC1CC(N)C(O)C(C)O1 (some centres undefined)	1.0
COc1ccc(C2=NN(C(=O)COc3ccc(Cl)cc3)C(O)(c3ccc(Cl)cc3)C2)cc1 (centres undefined)	0.0

Now examine the next entry.
Q: Recorded test outcome, item COc1ccc2nc3cc([N+](=O)[O-])ccc3c(NNc3ccc([N+](=O)[O-])cc3)c2c1
Ans: 0.0

* * *

A collection of molecules and their measured GI50
Test system: SNB-78
Assay Method Text: NCI tumour cell line growth inhibition, 48 h
Activity calls are given as the source filed them. No stated cut-off is given here; in the data, active = GI50 up to about 1.1 µM and inactive = higher.

The cases that follow already have their GI50 on record.
Molecule	Experimental Value
C=C(c1ccccc1N)[C@@]1(O)C[C@H](/C(=C\C)CO)C[C@@H]1NCc1ccccc1	25.2 µM (inactive)
C=C1c2[nH]c3c([N+](=O)[O-])c(OC)ccc3c2CCN1C(C)=O	> 100 µM (inactive)
COc1nc(=O)cc(N)n1C1OC(CO)C(O)C1O (centres undefined)	> 100 µM (inactive)

Measured GI50 for this entry Cc1cc(=O)c2c(O)cc3c(c2o1)CC=C(COC1OC(COC2OC(CO)C(O)C(O)C2O)C(O)C(O)C1O)CO3 (centres undefined) on SNB-78: > 100 µM (inactive)
